Data provenance: paper PMC12040169

# assay-method-text: in vitro
# run-conditions: human, hela cells, % viability
Catalogue of compounds with associated viability at 28.5 h, 10 µM
Report as a plain number; the unit % is understood.

Below: 5 compounds and their reported viability at 28.5 h, 10 µM.
| compound | quantity-unit | viability at 28.5 h, 10 µM |
| --- | --- | --- |
| O=C(c1ncoc1-c1ccc(F)cc1)N1CCOCC1 [CBK282362] | % | 87.1 |
| CN1CCN(CC(=O)Nc2ccc(Cl)cc2C(=O)c2ccccc2)CC1 [CBK266246] | % | 91.8 |
| Cc1noc([C@@H]2C[C@H](NS(=O)(=O)c3ccc(C#N)cc3)CN2C)n1 [CBK288874] | % | 113 |
| CN(C)CCN1C(=O)C2C3c4ccccc4C([N+](=O)[O-])(c4ccccc43)C2C1=O (stereo not shown) [CBK269286] | % | 81.4 |
| CC(=O)c1ccc(-c2nc(NC(=O)CC3OC(=O)c4ccccc43)cnc2-c2cccc(C)c2)s1 (stereo not shown) [CBK037152] | % | 112 |

Entry NCC(=O)Nc1ccc(F)c(F)c1 [CBK046313] ; viability at 28.5 h, 10 µM = 103

Entry CCCS(=O)(=O)NC[C@H]1C[C@@H]2CCN1C[C@@H]2c1cc(-c2ccccc2)nn1C [CBK289095] ; viability at 28.5 h, 10 µM = 93.8

Entry CC(C)(C)C(=O)N[C@H]1CO[C@H]2[C@@H]1OC[C@@H]2Nc1nccc(C2CCCC2)n1 [CBK289530] ; viability at 28.5 h, 10 µM = 115

Entry CC(=O)N1CCC[C@H]2NC(=O)CNC(=O)C3(C/C=C/C[C@H]21)CCN(C(=O)c1ccon1)CC3 [CBK292057] ; viability at 28.5 h, 10 µM = 109

Entry Cc1c(-c2cc(C(F)F)n3nc(CCC(=O)O)nc3n2)cnn1C [CBK286888] ; viability at 28.5 h, 10 µM = 85.7

Entry COc1cccc(N2CCN(CC(=O)N3CCC(C(N)=O)CC3)CC2)c1 [CBK202881] ; viability at 28.5 h, 10 µM = 106

Entry CCOc1ccc(-c2ncncc2-c2ccccc2)c(O)c1 [CBK288111] ; viability at 28.5 h, 10 µM = 86.4

Entry COc1cc(OC)cc(C(=O)Nc2ncccc2OCCCC#N)c1 [CBK304899] ; viability at 28.5 h, 10 µM = 88.3

Entry COc1ccc(CN2CC[C@@H]3[C@H](C2)[C@@H](c2ccc(F)cc2)CN3C(=O)c2ccccc2)cc1 [CBK286290] ; viability at 28.5 h, 10 µM = 92.3

Entry COc1ccc(-c2cnc(N)c(NC3CCOCC3)n2)c(OC)c1OC [CBK063844] ; viability at 28.5 h, 10 µM = 113

Entry O=C(c1ccc(CO)o1)N1CCn2cc(C(F)(F)F)nc2C1 [CBK283914] ; viability at 28.5 h, 10 µM = 94

Entry Cc1nn(C(C)C)c(C)c1CN(CCO)Cc1cccs1 [CBK283016] ; viability at 28.5 h, 10 µM = 86

Entry O=C(Nc1ccc(S(=O)(=O)Nc2ncccn2)cc1)c1ccc(N2C(=O)c3ccccc3C2=O)cc1 [CBK264868] ; viability at 28.5 h, 10 µM = 94

Entry Nc1nc(-c2ccc3c(c2)CCC(=O)N3)cs1 [CBK086133] ; viability at 28.5 h, 10 µM = 80.8

Entry COc1cc(CCN2C(=O)c3cccc4cccc(c34)C2=O)c(S(=O)(=O)N2CCCC2)cc1OC [CBK264947] ; viability at 28.5 h, 10 µM = 102

Entry CS(=O)(=O)Nc1ccc(C(=O)N2CC(=O)Nc3ccccc32)cc1 [CBK269827] ; viability at 28.5 h, 10 µM = 90.8

Entry COc1cc(OC)nc(CN2C(=O)C3(CC(=O)N(C)C3=O)c3cc(F)ccc32)n1 (stereo not shown) [CBK075475] ; viability at 28.5 h, 10 µM = 110

Entry CC(C)c1ccc(S(=O)(=O)NCc2ccc(F)c(F)c2F)cc1 [CBK044717] ; viability at 28.5 h, 10 µM = 102

Entry COc1ccc(C(=O)C2=C(O)C(=O)N(Cc3cccnc3)C2c2ccc(OC)cc2OC)c(C)c1 (stereo not shown) [CBK264928] ; viability at 28.5 h, 10 µM = 89.7

Entry Cc1ccc(-c2nn(CCC#N)cc2C(=O)N2CCCCC2)cc1 [CBK306119] ; viability at 28.5 h, 10 µM = 89.6

Entry CCOc1cc(C)c(-c2cc(N)[nH]n2)cc1OCC [CBK288216] ; viability at 28.5 h, 10 µM = 85.9

Entry COc1ccc(C(=O)/C=C/c2cccs2)c(OC(=O)c2ccc([N+](=O)[O-])cc2)c1 [CBK264926] ; viability at 28.5 h, 10 µM = 118

Entry CC1=NNC(=O)C1Cc1c(Cl)cccc1Cl (stereo not shown) [CBK067754] ; viability at 28.5 h, 10 µM = 109
